Data credit: ChEMBL document CHEMBL1782030

Test: Displacement of [3H]epibatidine from nAChR in rat cerebral cortex
Type: tissue-based
Experimental readout: pKi
Lab note: report pKi as minus log10 of the concentration in molar units, number only.

Consider the worked cases shown below.
molecule=COCCOCCOCCOC(=O)N1CC[N+](C)(C)CC1 recorded_measurement=4.32
molecule=COCCOCC#Cc1cncc(OC[C@@H]2CCCN2C)c1 recorded_measurement=7.82
molecule=COCCOC(=O)N1CC[N+](C)(C)CC1 recorded_measurement=5.52
molecule=COCCOCCOCCOCCOCCOC(=O)N1CC[N+](C)(C)CC1 recorded_measurement=4.42
molecule=COC(=O)NCC[N+](C)(C)C recorded_measurement=4.85
molecule=COCCOCCOCCOCC#Cc1cncc(OC[C@@H]2CCCN2C)c1 recorded_measurement=7.82

Given COCCOCCOCCOCCOCCOCCOCC#Cc1cncc(OC[C@@H]2CCCN2C)c1 , state its recorded pKi.
7.20

Given COCCOCCOCCOCCOCCOCCOC(=O)N1CC[N+](C)(C)CC1 , state its recorded pKi.
4.72

Given COCCOC(=O)NCC[N+](C)(C)C , state its recorded pKi.
4.27

Given COCCOCCOCCOC(=O)NCC[N+](C)(C)C , state its recorded pKi.
4.15

Given COCCOCCOCCOCCOCC#Cc1cncc(OC[C@@H]2CCCN2C)c1 , state its recorded pKi.
7.52

Given COCCOCCOCCOCCOCCOC(=O)NCC[N+](C)(C)C , state its recorded pKi.
3.72
